test: Rat pharmacokinetics in plasma, non compartmental analysis; assay type: in vivo, male rats; details: male, rat, in vivo, po, 15 mg/kg

Molecule	Cmax [ng/mL]
CSCC1CN(/N=C/c2ccc([N+](=O)[O-])o2)C(=O)O1 (stereo not shown)	8

----------
assay: Rat pharmacokinetics in plasma, non compartmental analysis; type: in vivo, male rats; conditions: rat, in vivo; XOS (15mg/kg), oral gavage, male rats, plasma, mean
Measurement Name: AUC(0-t) (ng·h/mL)

Compound	Measurement Name	Value Measured
C[S+]([O-])CC1CN(/N=C/c2ccc([N+](=O)[O-])o2)C(=O)O1 (racemic) [Nifuratel sulfoxide, nifuratel sulfoxide]	AUC(0-t)	605
